# TGI values compiled below
# Test system: LOX IMVI melanoma
# measurement-description: NCI tumour cell line growth inhibition, 48 h

molecule	TGI
Nc1ncnc2c1ncn2[C@@H]1C[C@H]1CO	> 100 µM

Input: For COc1ccc(C2=NN(C(=O)c3ccccc3)C(O)(c3cc(F)c(Cl)cc3Cl)C2)cc1OC (stereo unspecified) , what is its reported TGI?
Output: > 100 µM

Input: // query: O=c1cc2n(c(=O)[nH]1)C1OC(C(O)C1O)[C@H]2CCO (stereo partly specified)
Output: > 100 µM

Input: // query: O=c1n(CCCN2CCN(c3cccc(Cl)c3)CC2)nc2n1-c1ccc3ccccc3c1SC2
Output: > 100 µM

Input: // query: COc1ccc(S(=O)(=O)N2CCN(C(=O)OCc3ccccc3)CC2C(=O)NO)cc1 (stereo unspecified)
Output: 4.6 µM

Input: // query: C=C[C@@]1(C)CC2CC[C@]3(C)C(C)=CC(=O)CC3[C@]2(C)CC1O (stereo partly specified)
Output: > 100 µM

Input: // query: CCc1ccc(CCC(=O)O)nc1
Output: > 100 µM

Input: // query: CCOC(=O)NC(=O)c1cn(CCCCCOC(=O)NCCCCCCNC(=O)OCCCCCn2cc(C(=O)NC(=O)OCC)c(=O)[nH]c2=O)c(=O)[nH]c1=O
Output: > 100 µM

Input: // query: CCc1ccc(CCC(=O)Nc2ncc(Cc3cc(Cl)ccc3Cl)s2)o1
Output: > 50 µM

Input: // query: O=c1[nH]c(=O)n(C2CC(O)C(COP(=O)(O)OC3CC(n4cc(F)c(=O)[nH]c4=O)OC3COP(=O)(O)OC3CC(n4cc(F)c(=O)[nH]c4=O)OC3COP(=O)(O)OC3CC(n4cc(F)c(=O)[nH]c4=O)OC3COP(=O)(O)OC3CC(n4cc(F)c(=O)[nH]c4=O)OC3COP(=O)(O)OC3CC(n4cc(F)c(=O)[nH]c4=O)OC3COP(=O)(O)OC3CC(n4cc(F)c(=O)[nH]c4=O)OC3COP(=O)(O)OC3CC(n4cc(F)c(=O)[nH]c4=O)OC3COP(=O)(O)OC3CC(n4cc(F)c(=O)[nH]c4=O)OC3COP(=O)(O)OC3CC(n4cc(F)c(=O)[nH]c4=O)OC3CO)O2)cc1F (stereo unspecified)
Output: > 50 µM

Input: // query: CN(C)CCCc1cccnc1
Output: > 100 µM

Input: // query: Cc1cc(Cl)ccc1NC(=O)/C(Cl)=C(/Cl)C(=O)O
Output: 43 µM
